Data credit: patent US20170342144A1

Biological target: T1, human TGFβ2 (human, UniProt P61812 303-414)
T1 construct: also called TGFβ2 homodimer
T1 sequence: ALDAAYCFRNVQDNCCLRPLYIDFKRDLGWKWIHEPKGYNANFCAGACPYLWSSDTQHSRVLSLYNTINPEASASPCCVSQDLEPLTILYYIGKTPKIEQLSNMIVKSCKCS
Assay: Biacore off-rate vs wt GC1008, 50 nM
Reported Endpoint: kd var/kd wt
API note: the answer field is a bare number with no unit suffix.

Example entries and their recorded answers appear below.
>  <Binder>
I54G (antibody, V domains shown, GC1008 IgG4 variant) VH: QVQLVQSGAEVKKPGSSVKVSCKASGYTFSSNVISWVRQAPGQGLEWMGGVIPGVDIANYAQRFKGRVTITADESTSTTYMELSSLRSEDTAVYYCASTLGLVLDAMDYWGQGTLVTVSS VL: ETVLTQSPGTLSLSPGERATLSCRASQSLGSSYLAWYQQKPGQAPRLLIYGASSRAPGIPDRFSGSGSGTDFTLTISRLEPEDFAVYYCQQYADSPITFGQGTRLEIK

>  <Numeric Value>
1.8

$$$$
>  <Binder>
Y27F (antibody, V domains shown, GC1008 IgG4 variant) VH: QVQLVQSGAEVKKPGSSVKVSCKASGFTFSSNVISWVRQAPGQGLEWMGGVIPIVDIANYAQRFKGRVTITADESTSTTYMELSSLRSEDTAVYYCASTLGLVLDAMDYWGQGTLVTVSS VL: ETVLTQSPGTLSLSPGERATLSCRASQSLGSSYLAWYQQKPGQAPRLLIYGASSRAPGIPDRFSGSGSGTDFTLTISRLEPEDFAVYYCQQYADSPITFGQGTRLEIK

>  <Numeric Value>
1.2

$$$$

--- query ---
Query :: What does the data say about its kd var/kd wt? Entry: S30Y (antibody, V domains shown, GC1008 IgG4 variant) VH: QVQLVQSGAEVKKPGSSVKVSCKASGYTFYSNVISWVRQAPGQGLEWMGGVIPIVDIANYAQRFKGRVTITADESTSTTYMELSSLRSEDTAVYYCASTLGLVLDAMDYWGQGTLVTVSS VL: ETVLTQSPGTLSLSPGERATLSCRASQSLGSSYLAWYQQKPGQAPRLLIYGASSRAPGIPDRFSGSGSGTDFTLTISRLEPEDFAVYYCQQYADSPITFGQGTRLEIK
Result :: 0.9
